- Test system: A498 complex spheroids with HUVEC/MSC, growth
- procedure text: Anticancer human tumor A498 cell line growth inhibition [AhR]
- experimental setup: second compound 3.16 µM; first compound 1 µM; stronger effect = lower value
- Source text: Multicellular complex tumor spheroid response to aryl hydrocarbon receptor antagonists in combination with a variety of drugs and investigational agents in selected tumor cell lines […] Compounds. […] If the clinical Cmax for an agent had not been determined, the highest concentration tested was 10 microM (Table 1). […]
viability, T/C values for the molecules below.

molecule	target under test	viability, T/C, %
CC(C)c1c(-c2ccccc2)nc2c(C#N)c[nH]n2c1=O + Cc1ccccc1N=Nc1ccc(NC(=O)c2ccnn2C)c(C)c1	A498 complex spheroids with HUVEC/MSC, growth	76.8
Nc1ncn(C2CC(O)C(CO)O2)c(=O)n1 (centres undefined) + Cc1ccccc1N=Nc1ccc(NC(=O)c2ccnn2C)c(C)c1	A498 complex spheroids with HUVEC/MSC, growth	64
NS(=O)(=O)OCC1CC(n2ccc3c(NC4CCc5ccccc54)ncnc32)CC1O (centres undefined) + Cc1ccccc1N=Nc1ccc(NC(=O)c2ccnn2C)c(C)c1	A498 complex spheroids with HUVEC/MSC, growth	33
O=C(c1cc(Cc2n[nH]c(=O)c3ccccc23)ccc1F)N1CCN(C(=O)C2CC2)CC1 + Cc1cncc(-c2nc(NCCc3c[nH]c4ccccc34)c3ncn(C(C)C)c3n2)c1	A498 complex spheroids with HUVEC/MSC, growth	58.2

* * *

- Test system: A498 complex spheroids with HUVEC/MSC, growth
- procedure text: Anticancer human tumor A498 cell line growth inhibition [AhR]
- experimental setup: second compound 3.16 µM; first compound 0.00949 µM; stronger effect = lower value
Field 'label' (enum: yes / no). Set to yes when viability, T/C is strictly under 60%; else no.

compound	assigned category
CCc1c2c(nc3ccc(O)cc13)-c1cc3c(c(=O)n1C2)COC(=O)[C@]3(O)CC + Cc1ccccc1N=Nc1ccc(NC(=O)c2ccnn2C)c(C)c1	no
CC(C)CC(NC(=O)C(Cc1ccccc1)NC(=O)c1cnccn1)B(O)O (stereo not drawn) + Cc1cncc(-c2nc(NCCc3c[nH]c4ccccc34)c3ncn(C(C)C)c3n2)c1	yes
CCc1c2c(nc3ccc(O)cc13)-c1cc3c(c(=O)n1C2)COC(=O)[C@]3(O)CC + Cc1cncc(-c2nc(NCCc3c[nH]c4ccccc34)c3ncn(C(C)C)c3n2)c1	yes
CCN(c1cc(-c2ccc(CN3CCOCC3)cc2)cc(C(=O)NCc2c(C)cc(C)[nH]c2=O)c1C)C1CCOCC1 + Cc1cncc(-c2nc(NCCc3c[nH]c4ccccc34)c3ncn(C(C)C)c3n2)c1	yes
O=C(C=Cn1cnc(-c2cc(C(F)(F)F)cc(C(F)(F)F)c2)n1)NNc1cnccn1 + Cc1cncc(-c2nc(NCCc3c[nH]c4ccccc34)c3ncn(C(C)C)c3n2)c1	no
O=C(C=Cn1cnc(-c2cc(C(F)(F)F)cc(C(F)(F)F)c2)n1)NNc1cnccn1 + Cc1ccccc1N=Nc1ccc(NC(=O)c2ccnn2C)c(C)c1	no

* * *

- Test system: A498 complex spheroids with HUVEC/MSC, growth
- procedure text: Anticancer human tumor A498 cell line growth inhibition [AhR];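 also: luminescence signal used as a surrogate for viable cells; seven day exposure starting three days after spheroid seeding; luminescence viability scaled so 100% equals DMSO vehicle wells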
- experimental setup: second compound 3.16 µM; first compound 0.001 µM; stronger effect = lower value
Labelling: viability, T/C reported below 70% becomes Fulfilled; at or above becomes Not fulfilled.

molecule	assigned category
Cn1ncnc1C1c2n[nH]c(=O)c3cc(F)cc(c23)NC1c1ccc(F)cc1 (stereo unspecified) + Cc1ccccc1N=Nc1ccc(NC(=O)c2ccnn2C)c(C)c1	Not fulfilled
Cn1ncnc1C1c2n[nH]c(=O)c3cc(F)cc(c23)NC1c1ccc(F)cc1 (stereo unspecified) + Cc1cncc(-c2nc(NCCc3c[nH]c4ccccc34)c3ncn(C(C)C)c3n2)c1	Fulfilled
CC[C@@]1(O)C(=O)OCc2c1cc1n(c2=O)Cc2cc3c(CN(C)C)c(O)ccc3nc2-1 + Cc1ccccc1N=Nc1ccc(NC(=O)c2ccnn2C)c(C)c1	Not fulfilled
Cn1ncnc1C1c2n[nH]c(=O)c3cc(F)cc(c23)NC1c1ccc(F)cc1 (stereo unspecified) + CC(CO)NC(=O)c1cc(-c2ccc(Cl)cc2)nn(-c2cnn(C)c2)c1=O	Not fulfilled
CC[C@@]1(O)C(=O)OCc2c1cc1n(c2=O)Cc2cc3c(CN(C)C)c(O)ccc3nc2-1 + CC(CO)NC(=O)c1cc(-c2ccc(Cl)cc2)nn(-c2cnn(C)c2)c1=O	Not fulfilled
CC[C@@]1(O)C(=O)OCc2c1cc1n(c2=O)Cc2cc3c(CN(C)C)c(O)ccc3nc2-1 + Cc1cncc(-c2nc(NCCc3c[nH]c4ccccc34)c3ncn(C(C)C)c3n2)c1	Not fulfilled

* * *

- Test system: A498 complex spheroids with HUVEC/MSC, growth
- procedure text: Anticancer human tumor A498 cell line growth inhibition [AhR];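 also: luminescence signal used as a surrogate for viable cells; seven day exposure starting three days after spheroid seeding; luminescence viability scaled so 100% equals DMSO vehicle wells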
- experimental setup: second compound 3.16 µM; first compound 0.000316 µM; stronger effect = lower value
measured metric: viability, T/C (%)

compound	uom	recorded number
Cn1ncnc1C1c2n[nH]c(=O)c3cc(F)cc(c23)NC1c1ccc(F)cc1 (stereo unspecified) + Cc1cncc(-c2nc(NCCc3c[nH]c4ccccc34)c3ncn(C(C)C)c3n2)c1	%	60.6
CC[C@@]1(O)C(=O)OCc2c1cc1n(c2=O)Cc2cc3c(CN(C)C)c(O)ccc3nc2-1 + Cc1ccccc1N=Nc1ccc(NC(=O)c2ccnn2C)c(C)c1	%	87.3
CC[C@@]1(O)C(=O)OCc2c1cc1n(c2=O)Cc2cc3c(CN(C)C)c(O)ccc3nc2-1 + Cc1cncc(-c2nc(NCCc3c[nH]c4ccccc34)c3ncn(C(C)C)c3n2)c1	%	61.4
Cn1ncnc1C1c2n[nH]c(=O)c3cc(F)cc(c23)NC1c1ccc(F)cc1 (stereo unspecified) + Cc1ccccc1N=Nc1ccc(NC(=O)c2ccnn2C)c(C)c1	%	83.7
Cn1ncnc1C1c2n[nH]c(=O)c3cc(F)cc(c23)NC1c1ccc(F)cc1 (stereo unspecified) + CC(CO)NC(=O)c1cc(-c2ccc(Cl)cc2)nn(-c2cnn(C)c2)c1=O	%	91
CC[C@@]1(O)C(=O)OCc2c1cc1n(c2=O)Cc2cc3c(CN(C)C)c(O)ccc3nc2-1 + CC(CO)NC(=O)c1cc(-c2ccc(Cl)cc2)nn(-c2cnn(C)c2)c1=O	%	92

* * *

Recorded viability, T/C values for a group of compounds are listed next.
- Tested on: A498 complex spheroids with HUVEC/MSC, growth
- procedure text: Anticancer human tumor A498 cell line growth inhibition [AhR];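 also: luminescence signal used as a surrogate for viable cells; seven day exposure starting three days after spheroid seeding; luminescence viability scaled so 100% equals DMSO vehicle wells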
- experimental setup: second compound 0.316 µM; first compound 0.003 µM; stronger effect = lower value

compound	viability, T/C (%)
CCc1c2c(nc3ccc(O)cc13)-c1cc3c(c(=O)n1C2)COC(=O)[C@]3(O)CC + Cc1ccccc1N=Nc1ccc(NC(=O)c2ccnn2C)c(C)c1	83.5
CC(C)CC(NC(=O)C(Cc1ccccc1)NC(=O)c1cnccn1)B(O)O (stereo not drawn) + CC(CO)NC(=O)c1cc(-c2ccc(Cl)cc2)nn(-c2cnn(C)c2)c1=O	52.6
Nc1ncn(C2CC(O)C(CO)S2)c(=O)n1 (stereo not drawn) + Cc1cncc(-c2nc(NCCc3c[nH]c4ccccc34)c3ncn(C(C)C)c3n2)c1	104

* * *

- System: A498 complex spheroids with HUVEC/MSC, growth
- procedure text: Anticancer human tumor A498 cell line growth inhibition [AhR];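 also: luminescence signal used as a surrogate for viable cells; seven day exposure starting three days after spheroid seeding; luminescence viability scaled so 100% equals DMSO vehicle wells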
- experimental setup: second compound 0.316 µM; first compound 10 µM; stronger effect = lower value
# viability, T/C listing for each entry below

compound	viability, T/C / %
O=C(c1cc(Cc2n[nH]c(=O)c3ccccc23)ccc1F)N1CCN(C(=O)C2CC2)CC1 + Cc1ccccc1N=Nc1ccc(NC(=O)c2ccnn2C)c(C)c1	90.4
COc1cccc2c1C(=O)c1c(O)c3c(c(O)c1C2=O)CC(O)(C(=O)CO)CC3OC1CC(N)C(O)C(C)O1 (configuration not stated) + Cc1cncc(-c2nc(NCCc3c[nH]c4ccccc34)c3ncn(C(C)C)c3n2)c1	0.72
Nc1ccn(C2OC(CO)C(O)C2(F)F)c(=O)n1 (configuration not stated) + Cc1ccccc1N=Nc1ccc(NC(=O)c2ccnn2C)c(C)c1	38
CC(C)c1c(-c2ccccc2)nc2c(C#N)c[nH]n2c1=O + Cc1cncc(-c2nc(NCCc3c[nH]c4ccccc34)c3ncn(C(C)C)c3n2)c1	98.5
Nc1ccccc1NC(=O)c1ccc(CNC(=O)OCc2cccnc2)cc1 + Cc1ccccc1N=Nc1ccc(NC(=O)c2ccnn2C)c(C)c1	1.77
COc1cc(C2c3cc4c(cc3C(OC3OC5COC(C)OC5C(O)C3O)C3COC(=O)C23)OCO4)cc(OC)c1O (configuration not stated) + CC(CO)NC(=O)c1cc(-c2ccc(Cl)cc2)nn(-c2cnn(C)c2)c1=O	40.1
COc1cccc2c1C(=O)c1c(O)c3c(c(O)c1C2=O)CC(O)(C(=O)CO)CC3OC1CC(N)C(O)C(C)O1 (configuration not stated) + CC(CO)NC(=O)c1cc(-c2ccc(Cl)cc2)nn(-c2cnn(C)c2)c1=O	0.83
COc1ccc([C@@H](O)c2cc(-c3ncnc4cc(N5CCOCC5)ccc34)c(F)cc2Cl)nn1 + Cc1ccccc1N=Nc1ccc(NC(=O)c2ccnn2C)c(C)c1	9.4
O=C(c1cc(Cc2n[nH]c(=O)c3ccccc23)ccc1F)N1CCN(C(=O)C2CC2)CC1 + Cc1cncc(-c2nc(NCCc3c[nH]c4ccccc34)c3ncn(C(C)C)c3n2)c1	86
CC1COCCN1c1cc(C2(S(C)(=N)=O)CC2)nc(-c2ccnc3[nH]ccc23)n1 (configuration not stated) + Cc1ccccc1N=Nc1ccc(NC(=O)c2ccnn2C)c(C)c1	25.7
NS(=O)(=O)OCC1CC(n2ccc3c(NC4CCc5ccccc54)ncnc32)CC1O (configuration not stated) + CC(CO)NC(=O)c1cc(-c2ccc(Cl)cc2)nn(-c2cnn(C)c2)c1=O	17.6
CC(C)c1c(-c2ccccc2)nc2c(C#N)c[nH]n2c1=O + CC(CO)NC(=O)c1cc(-c2ccc(Cl)cc2)nn(-c2cnn(C)c2)c1=O	88.5
